Test system: OVCAR-8 ovarian
Procedure Text: NCI tumour cell line growth inhibition, 48 h; in the data active = GI50 below about 0.43 µM; inactive = the rest
Outcome field: choose from active, inactive

// query Given `C=C1C(=O)O[C@H]2[C@H]1CC/C(COC(=O)C(=O)c1c[nH]c3ccc(OC)cc13)=C\CC[C@@]1(C)O[C@@H]21` , state the outcome it received in this test.
// result inactive

// query Hi, do you know how CC(=O)OCC1OC(OC2CC3C(C)(C)C(OC(C)=O)CC[C@]3(C)C3CCC45CC4(CC[C@H]5C(C)CC(O)C4OC4(C)C)[C@]23C)C(O)C(O)C1O (stereo not given in full) came out in this test?
// result inactive

// query Hi, do you know how `C#CCN1CCN(C(=S)N/N=C(\C)c2ccccn2)CC1` came out in this test?
// result active

// query Look up the recorded call for `Cc1cc(S(=O)(=O)Nc2nc3ccsc3c(=O)n2Cc2ccco2)c(S)cc1Cl` in this test.
// result inactive

// query Could you check what this test reported for `Nc1nc2ccc([C@@H]3Nc4ccc5[nH]ncc5c4[C@H]4[C@H]5CCC(C5)[C@H]43)cc2s1` ?
// result inactive

###

System: SF-295 CNS
Procedure Text: NCI tumour cell line growth inhibition, 48 h
Exercise: state measured TGI for each of the compounds provided.

// query Please state recorded TGI (tested on SF-295 CNS) of `COC1=CC(=O)C(O)=C(C[C@@]2(C)[C@@H]3CCC[C@H](COC(=O)CCCCCNC(=O)OC(C)(C)C)[C@@]3(C)CC[C@@H]2C)C1=O`
// result > 10 µM

// query Query for SF-295 CNS: what TGI does the record show for CCOC(OCC)C(CC)[Se]c1ccccc1[N+](=O)[O-] (stereo not drawn) ?
// result > 22.9 µM

// query Lookup: TGI / SF-295 CNS / FC(F)(F)c1ccc2c(c1)nc(Cc1ccccc1)n2C[C@@H]1CCCN2CCCCC12 (stereo partly drawn)
// result 29.6 µM

###

Tested on: HT29 colon
Procedure Text: NCI tumour cell line growth inhibition, 48 h
Property Name: TGI

// query Field request: TGI | item: `Oc1cc(Cl)cc2cc(Br)cnc12`
// result > 100 µM

// query Can you look up the measured TGI of NC(=O)c1csc(C2C=CC(CO)O2)n1 (stereo not drawn) for me?
// result > 100 µM

// query Which TGI value is on record for `Nc1c(C(=O)c2cccc(OCCN3CCOCC3)c2)cnn1-c1ccc(F)cc1` ?
// result > 25 µM

###

Tested on: IGROV1 ovarian
Procedure Text: NCI tumour cell line growth inhibition, 48 h
Would you kindly list TGI for each of these compounds?

// query Look up TGI: `Cc1ccc(C(=O)CC(Cl)=C(Cl)Cl)cc1`
// result > 100 µM

// query What measured TGI goes with Oc1ccc2c(c1)OCC(O)(c1ccccc1O)C2 (stereo not drawn) ?
// result > 100 µM

// query Look up TGI for this compound: `N[C@@H]1c2c(Br)sc(Br)c2[C@H](O)[C@@H]1O`
// result > 100 µM

// query Give the measured TGI of COC1(OC)N=C(N)C2(C#N)C(C)CC(=O)N(N(C)C)C12C#N (stereo not drawn) .
// result > 100 µM

// query GET /values?readout=TGI&item= `C=C(CN1CCN(c2cccc(C(F)(F)F)c2)CC1)c1ccc(C(=O)Nc2ccccc2N)cc1`
// result > 50 µM

// query # lookup: TGI of COC(=O)C1OC(O[C@H]2CC[C@]3(C)[C@H]4CC=C5[C@@H]6CC(C)(C)CC[C@]6(C(=O)OC)[C@H](O)C[C@@]5(C)[C@]4(C)CC[C@H]3C2(C)C)C(O)C(O)C1O (stereo partly drawn)
// result 24.8 µM

// query Consider the compound `COc1ccc(-c2cc(-c3ccc(Nc4ccnc5cc(C(F)(F)F)ccc45)cc3)[nH]c(=O)c2C#N)c2ccccc12` and give its measured TGI.
// result > 100 µM

// query Dear colleague, I am looking for the recorded TGI of the following compound: OC1C(O)C(O)C(O)C(O)C1O (stereo not drawn)
// result > 1000 µM

// query Reported TGI for `O=C1/C(=C/c2ccccc2)SC(=Nc2ccccc2)N1Nc1ccccc1` : what is it?
// result > 100 µM

// query Fill in: TGI of `Cc1cc(O)c2c(c1)C(=O)c1cc(O)cc(O)c1C2=O` is ___
// result > 100 µM

// query Which TGI is reported for this compound? `O=c1c2cc(Br)ccc2oc2nc3n(c(=O)c12)CCCS3`
// result > 100 µM

// query Which TGI value belongs to Oc1ccc(-c2nc3cc(C(F)(F)F)ccc3n2CC2CCCN3CCCCC23)cc1 (stereo not drawn) ?
// result 26 µM

// query Quick one: TGI for `Oc1cc(Cl)cc2cc(Br)cnc12` ?
// result > 94.1 µM

// query Quick check: TGI of Nc1nc2c(c3ncccc13)C(c1cccc(Cl)c1)Cc1ncccc1-2 (stereo not drawn) ?
// result > 100 µM

// query Returns the measured TGI for the input compound. Input: `CCN1/C(=C/c2ccc3ccccc3[n+]2CC)C=Cc2ccccc21`
// result 16.4 µM

// query I have this compound here, `CC[C@@]1(O)C(=O)OCc2c1cc1n(c2=O)Cc2cc3cc(OC)ccc3nc2-1` , and I need its recorded TGI.
// result 0.945 µM

// query What value of measured TGI is listed for `COC(=O)c1c2c(c(C)[n+]([O-])c1C)C(=O)C=C(NCc1cccc(OC)c1)C2=O` ?
// result 2.18 µM

// query TGI value for entry `Cn1c(N2CCCC2)c(C=O)c(=O)n(C)c1=O`
// result > 100 µM

###

System: CAKI-1 renal
Procedure Text: NCI tumour cell line growth inhibition, 48 h; in the data active means GI50 below about 0.43 µM; inactive means the rest
Hello, when you answer, please use one of the following outcomes: active, inactive

// query Record lookup: outcome of this test for `CC[N+](CC)=c1ccc2nc3c(cc(NCc4ccccc4)c4ccccc43)oc-2c1` ?
// result active

// query What was the test verdict on `O=C1c2ccccc2S(=O)(=O)N1CSC(=S)N1CCCC1` ?
// result inactive

// query So what was the verdict on `Cn1ccc(=Nc2ccc(NC(=O)c3ccc(N=c4ccn(C)c5ccc([N+](=O)[O-])cc45)cc3)cc2)cc1` in this test?
// result inactive

// query Per the records of this test, what outcome belongs to `CC(C)(C)OC(=O)NCCCCCCCCn1c2c(c3ccccc3c1=O)C(=O)c1ccccc1-2` ?
// result inactive

// query Dear colleague, could you share the recorded outcome for `COC(=O)c1ccc(=O)c2nc3/c(=C/O)c(O)cc(=O)c3[nH]c12` when you have a moment?
// result inactive

// query Tell me the assay call for `C=C(CN1CCN(c2cccc(C(F)(F)F)c2)CC1)c1ccc(C(=O)Nc2ccccc2N)cc1` please.
// result inactive

###

Tested on: MDA-MB-435
Procedure Text: NCI tumour cell line growth inhibition, 48 h
Property Name: TGI

// query Consider the molecule shown here: `Cc1ccc(S(=O)(=O)N2CCSCCSCCN(S(=O)(=O)c3ccc(C)cc3)CCN(S(=O)(=O)c3ccc(C)cc3)CC2)cc1` What is its recorded TGI?
// result > 100 µM

// query Entry under review: `O=S(=O)(O)CCS` . Reported TGI?
// result > 100 µM

// query Query (molecule): `CN(C)CCNC(=O)c1cccc2cc3ccccc3nc12` ; field requested: TGI
// result 6.67 µM

// query Endpoint output: TGI of `C/C=C(/C)C(=O)O[C@@H]1c2c(C)coc2C[C@H]2CC[C@H](O)[C@H](C)[C@]21C` . Value?
// result > 100 µM

// query Quick one: TGI for `O=C1CN(c2ccc(Cl)cc2)C(=O)CN1CCN1CC(=O)N(c2ccc(Cl)cc2)CC1=O` ?
// result > 100 µM

// query I have this molecule here, `COc1ccc(-c2cc(-c3ccc(Nc4ccnc5cc(C(F)(F)F)ccc45)cc3)[nH]c(=O)c2C#N)c2ccccc12` , and I need its recorded TGI.
// result > 56.1 µM

// query // returns reported TGI for input NC1CC2C3CCC2C1C3=O (stereo not given)
// result > 100 µM

// query So what's the measured TGI for this one? `COc1c2ccccc2c(O)c2c(=O)c(C(=O)O)cn(C)c12`
// result > 100 µM

// query Fill blank: measured TGI of the molecule C=C(C)CCC1CCCCC(CN(C)C)C1=O (stereo not given) is ____.
// result > 100 µM

// query Give its TGI value. Item: `Cn1c(-c2csc(-c3ccc(Cl)cc3)n2)n[nH]c1=S`
// result > 100 µM

###

Tested on: DU-145 prostate
Procedure Text: NCI tumour cell line growth inhibition, 48 h
Property Name: TGI

// query Requested read-out: TGI. Entry: `CC(=O)Oc1ccn2nc(C)c(Br)c2c1Br`
// result > 100 µM

// query Looking for the measured TGI of `Cc1cc(O)c2c(c1)C(=O)c1cc(O)cc(O)c1C2=O` , can you help?
// result > 100 µM

// query For the compound `CC(C)(C)c1cc(-c2ccc(-c3cc(C(C)(C)C)c(O)c(C(C)(C)C)c3)cc2)cc(C(C)(C)C)c1O` , what TGI is on record?
// result > 100 µM

// query TGI value for entry `O=C1Oc2ccccc2C(=O)/C1=C/N1C(=O)/C(=C/c2ccc([N+](=O)[O-])cc2)SC1=S`
// result > 100 µM

// query Given the compound `Nc1c(C(=O)c2cccc(OCCN3CCOCC3)c2)cnn1-c1ccc(F)cc1` , what is its reported TGI?
// result > 25 µM
